Tested on: differentiated CaCo-2 cells
experiment description: Neutral red uptake (NRU) cell viability assay, 72 h
Assay type: cell-based
assay context: Homo sapiens, CaCo-2 differentiated, 72 h of exposition
Below is a list of entries, each paired with its recorded IC50 value.
measure: IC50 (µM)

[[record]]
compound = "CC(C)=CCc1c(O)cc2c(c1O)C(=O)C[C@@H](c1ccc(O)cc1)O2"
unit_info = "µM"
bound_type = "="
numeric_result = 61.9

[[record]]
compound = "CC(C)=CCc1c(O)cc(O)c2c1O[C@H](c1ccc(O)cc1)CC2=O"
unit_info = "µM"
bound_type = ">"
numeric_result = 100

[[record]]
compound = "COc1cc(O)c(CC=C(C)C)c2c1C(=O)CC(c1ccc(O)cc1)O2 (stereo not shown)"
unit_info = "µM"
bound_type = ">"
numeric_result = 100

[[record]]
compound = "COc1cc(O)c(CC=C(C)C)c(O)c1C(=O)/C=C/c1ccc(O)cc1"
unit_info = "µM"
bound_type = "="
numeric_result = 39.3


The reported measurements were obtained from paper PMC6520918.
